Give phage ELISA signal OD450 for every item shown.
- TESTED TARGET: T1, 5-Helix (HIV-1 group M subtype B, HXB2 (gp41 …, stabilised))
- T1 construct: also called designed protein based on HIV-1 gp41
- ASSAY TEXT: ELISA
- EXPERIMENTAL SETUP: one partner purified
One number for each entry, in OD450.

Here is how some binders turned out for phage ELISA signal OD450.
// phage ELISA signal OD450 value for 25D8 bivalent scFv on phage (scFv, V domains shown) VH: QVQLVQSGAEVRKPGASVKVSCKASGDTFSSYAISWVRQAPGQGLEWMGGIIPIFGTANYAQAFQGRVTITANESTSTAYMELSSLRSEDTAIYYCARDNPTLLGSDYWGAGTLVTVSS VL: DIQMTQSPSTLSASIGDRVTITCRASEGISSNLAWYQQKPGKAPKLLISRAYRLASGAPSRFSGSGSGTDFTLTISSLQPDDFATYYCQQRATYPLTFGGGTKLEIK : 3.2

So for 25B4 bivalent scFv on phage (scFv, V domains shown) VH: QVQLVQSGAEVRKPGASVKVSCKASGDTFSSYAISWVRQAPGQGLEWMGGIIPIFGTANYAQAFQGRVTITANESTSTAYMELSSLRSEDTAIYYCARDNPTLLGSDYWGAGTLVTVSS VL: DIQMTQSPSTLSASIGDRVTITCRASEGIRNGLAWYQQKPGKAPKLLISRASHLASGAPSRFSGSGSGTDFTLTISSLQPDDFATYYCQQYYAYPHTFGGGTKLEIK , the logged phage ELISA signal OD450 turned out to be 2.9

Please fill in: phage ELISA signal OD450 reported for 25A5 bivalent scFv on phage (scFv, V domains shown) VH: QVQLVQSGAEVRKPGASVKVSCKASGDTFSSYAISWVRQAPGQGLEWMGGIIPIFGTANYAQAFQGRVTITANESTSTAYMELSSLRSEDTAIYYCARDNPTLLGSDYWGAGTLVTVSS VL: DIQMTQSPSTLSASIGDRVTITCRASESIRSHLAWYQQKPGKAPKLLISRASRLASGAPSRFSGSGSGTDFTLTISSLQPDDFATYYCQQSSDYPHTFGGGTKLEIK = 3.5

Per the record, 25F10 bivalent scFv on phage (scFv, V domains shown) VH: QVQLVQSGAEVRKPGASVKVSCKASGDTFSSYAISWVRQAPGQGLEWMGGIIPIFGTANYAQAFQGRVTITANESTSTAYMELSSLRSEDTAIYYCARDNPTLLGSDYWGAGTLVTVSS VL: DIQMTQSPSTLSASIGDRVTITCRASEGIHNRLAWYQQKPGKAPKLLISHASNLASGAPSRFSGSGSGTDFTLTISSLQPDDFATYYCQQYSNYPLTFGGGTKLEIK has phage ELISA signal OD450 of 1.7

Continue with the next binder.
Short answer for 25B8 bivalent scFv on phage (scFv, V domains shown) VH: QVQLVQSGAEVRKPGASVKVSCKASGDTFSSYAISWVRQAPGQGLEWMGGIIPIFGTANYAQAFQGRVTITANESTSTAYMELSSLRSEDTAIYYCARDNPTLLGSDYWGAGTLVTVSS VL: DIQMTQSPSTLSASIGDRVTITCRASENINRNLAWYQQKPGKAPKLLISRASRLASGAPSRFSGSGSGTDFTLTISSLQPDDFATYYCQQRYNYPYTFGGGTKLEIK : phage ELISA signal OD450 was 2.9
